assay: NCI Yeast Anticancer Drug Screen. Data for the cln2 rad14 strain (AID 165); conditions: S. cerevisiae cln2 rad14 strain, at 50.0 µM
Compounds without any hit were thinned out: in the full panel of roughly 79,000, 15% have a hit. Active and inactive are the calls of the source. No stated cut-off is given here; in the data, active means growth inhibition above about 70%; inactive means the rest.
Labels: y (active), n (inactive)

INSERT INTO measurements (compound, group_label) VALUES
  ('N#C/C(=C1\N=C(c2ccccc2O)Oc2ccccc21)c1ccc([N+](=O)[O-])cc1', 'n'),
  ('C=C(C)CC1CC(=O)OC1=O (centres undefined)', 'n'),
  ('CC1=CC(O)(c2ccccc2)C(N2CCOCC2)N1O (centres undefined)', 'n'),
  ('CN(C)C12CCCCCC1S(=O)(=O)C2 (centres undefined)', 'n'),
  ('CCCCCCCCCCCCN(CC(O)C(O)C(OC1OC(CO)C(O)C(O)C1O)C(O)CO)C(=O)CCCCCCCCCCC (centres undefined)', 'n'),
  ('COc1ccc(Cl)cc1NC(=O)CC(C)=O', 'n'),
  ('Nc1nc(N)nc(CCC(Br)(Br)Br)n1', 'n'),
  ('CN(N)C(=O)Nc1ccc([N+](=O)[O-])cc1', 'n'),
  ('CC1(C)c2ccccc2-c2nc3ccccc3nc2C1O (centres undefined)', 'n'),
  ('COc1cc(OC)c(OCc2ccccc2)c(OC)c1', 'n'),
  ('O=C(CCCC(=O)N/N=C/c1cccc([N+](=O)[O-])c1)N/N=C\c1cccc([N+](=O)[O-])c1', 'n'),
  ('c1cncc(CSc2ncnc3nc[nH]c23)c1', 'n'),
  ('Nc1c(OCc2ccccc2)cccc1C(=O)O', 'n'),
  ('Cc1ccc2c(c1)C(c1ccccc1)(c1ccccc1)N(c1ccccc1)S2(=O)=O', 'n'),
  ('O=C(O)C(CSC(c1ccccc1)(c1ccccc1)c1ccccc1)NSc1ccccc1[N+](=O)[O-] (centres undefined)', 'y'),
  ('CC(=O)Nc1ccc(S(=O)(=O)Oc2noc3ccc(Br)cc23)cc1', 'n'),
  ('CC(=O)c1cc([N+](=O)[O-])c[nH]1', 'n'),
  ('CC(C)/C(Cl)=N\OC(=O)Nc1ccc(C#N)cc1', 'n'),
  ('CC(C)(C)C1(C#N)C(=O)N(c2ccc(Cl)cc2)C12c1ccccc1-c1ccccc12 (centres undefined)', 'n'),
  ('OC1CC2CCCCC2CC1c1ccccc1 (centres undefined)', 'n'),
  ('CC(C)NC(=O)OCc1c(COC(=O)NC(C)C)c2n(c1-c1ccc(Cl)c(Cl)c1)CCS2(=O)=O', 'n'),
  ('CC(=O)c1cccc(NC(=O)Nc2cccc(C)n2)c1', 'n'),
  ('CCCSc1n[nH]c(=S)c2nc[nH]c12', 'n'),
  ('CC1CCOCCCOC(=O)CCOCCC(=O)OCCCOCCCOC(=O)CCOCCC(=O)O1 (centres undefined)', 'n'),
  ('O=C(O)CCCc1ccc(Oc2ccccc2)cc1', 'n'),
  ('CCOC(=O)Oc1ccc(C(CNC(C)C)OC(=O)OCC)cc1OC(=O)OCC (centres undefined)', 'n'),
  ('Cc1nc(N)[nH]c(=O)c1Cc1ccc(Cl)cc1Cl', 'n'),
  ('O=C(O)c1cnc2cc3c(cc2c1Nc1cccc(Cl)c1)OCO3', 'n'),
  ('O=C(CN=Cc1ccccc1O)NCc1ccccn1', 'n'),
  ('Cc1ccc(N(CN2C(=O)CCC2=O)CS(=O)(=O)c2ccc(Cl)cc2)cc1', 'n'),
  ('COc1cc(CCl)c(OC)cc1Cl', 'n'),
  ('c1ccc(CSCCc2ccncc2)cc1', 'n'),
  ('CCC(=O)c1ccc([N+](=O)[O-])cc1', 'n'),
  ('O=Cc1c[nH]c2ccccc12', 'n'),
  ('CC(C)=CCNc1ncnc2c1ncn2CCC#N', 'n'),
  ('COc1ccc(CC(=O)OCC2CCCO2)cc1OC (centres undefined)', 'n'),
  ('Oc1cc2cc(-c3ccccc3)[nH]c2c2ccccc12', 'n'),
  ('Cc1c(Cl)cccc1NC(=O)OCCCc1ccccc1', 'n'),
  ('COc1c2c(cc3occ(-c4ccc(CC=C(C)C)cc4)c(=O)c13)OC(C)(C)C=C2', 'n'),
  ('O=C(O)CCCCC(=O)c1ccccc1', 'n'),
  ('CCCCOc1ccc(Nc2c(C(=O)OCC)cnc3cc4c(cc23)OCO4)cc1', 'n'),
  ('O=c1[nH]cc(NCCc2ccccc2)c(=O)[nH]1', 'n'),
  ('COc1cccc(N=Nc2c(-c3ccccc3)nn(C(=S)S)c2C)c1', 'n'),
  ('O=S(=O)(O)c1ccccc1', 'n'),
  ('CCN(CC)C(=O)Nc1cccc(O)c1', 'n'),
  ('CCOC(=O)/C(O)=C(\C#N)c1cc(C)ccc1C', 'n'),
  ('CCOC(=O)C(CC(c1ccc2c(c1)OCO2)C(C(=O)N(C(C)C)C(C)C)[N+](=O)[O-])C(=O)OCC (centres undefined)', 'n'),
  ('COc1ccc(C(=O)CC(Sc2ccccc2N)c2ccc(OC)cc2)cc1 (centres undefined)', 'n'),
  ('C1CCN(c2nsc(N3CCCCC3)n2)CC1', 'n');
